Value source: patent US5316935A

# maps each entry to its kcat/Km
substrate: C[C@H](NC(=O)CCC(=O)O)C(=O)N[C@@H](C)C(=O)N1CCC[C@H]1C(=O)N[C@@H](Cc1ccccc1)C(=O)Nc1ccc([N+](=O)[O-])cc1; assay: Amidase activity: hydrolysis of p-nitroanilide peptide substrate; type: biochemical, Bacillus subtilis; conditions: other: 0% DMF, 0.1M Tris-HCl, 10 mM CaCl2, pH 8, 37° C.
Assay Endpoint: kcat/Km (M^-1 s^-1 × 10^3)

Bacillus subtilis subtilisin E variant 3M (D60N + Q103R + N218S) (Bacillus subtilis subsp. subtilis str. 168; A256V/D166N/N324S/Q209R) (protein, each contain 275 residues; made in house; host or cells: Bacillus subtilis DB428 (vector pKWC), secreted into the medium) AQSVPYGISQIKAPALHSQGYTGSNVKVAVIDSGIDSSHPDLNVRGGASFVPSETNPYQNGSSHGTHVAGTIAALNNSIGVLGVAPSASLYAVKVLDSTGSGRYSWIINGIEWAISNNMDVINMSLGGPTGSTALKTVVDKAVSSGIVVVAAAGNEGSSGSTSTVGYPAKYPSTIAVGAVNSSNQRASFSSAGSELDVMAPGVSIQSTLPGGTYGAYSGTSMATPHVAGAAALILSKHPTWTNAQVRDRLESTATYLGNSFYYGKGLINVQAAAQ : 360
Bacillus subtilis subtilisin E variant 7M (D60N + Q103R + N218S + D97G + E156G + N181S + G131D) (Bacillus subtilis subsp. subtilis str. 168; … (protein) AQSVPYGISQIKAPALHSQGYTGSNVKVAVIDSGIDSSHPDLNVRGGASFVPSETNPYQNGSSHGTHVAGTIAALNNSIGVLGVAPSASLYAVKVLGSTGSGRYSWIINGIEWAISNNMDVINMSLGGPTDSTALKTVVDKAVSSGIVVVAAAGNGGSSGSTSTVGYPAKYPSTIAVGAVSSSNQRASFSSAGSELDVMAPGVSIQSTLPGGTYGAYSGTSMATPHVAGAAALILSKHPTWTNAQVRDRLESTATYLGNSFYYGKGLINVQAAAQ : 606
Bacillus subtilis subtilisin E variant 4M (D60N + Q103R + N218S + D97G) (Bacillus subtilis subsp. subtilis str. 168; A256V/D166N/D203G/N324S/Q209R) (protein, each contain 275 residues; made in house; host or cells: Bacillus subtilis DB428 (vector pKWC), secreted into the medium) AQSVPYGISQIKAPALHSQGYTGSNVKVAVIDSGIDSSHPDLNVRGGASFVPSETNPYQNGSSHGTHVAGTIAALNNSIGVLGVAPSASLYAVKVLGSTGSGRYSWIINGIEWAISNNMDVINMSLGGPTGSTALKTVVDKAVSSGIVVVAAAGNEGSSGSTSTVGYPAKYPSTIAVGAVNSSNQRASFSSAGSELDVMAPGVSIQSTLPGGTYGAYSGTSMATPHVAGAAALILSKHPTWTNAQVRDRLESTATYLGNSFYYGKGLINVQAAAQ : 249
Bacillus subtilis subtilisin E variant 6M (D60N + Q103R + N218S + D97G + E156G + N181S) (Bacillus subtilis subsp. subtilis str. 168; … (protein) AQSVPYGISQIKAPALHSQGYTGSNVKVAVIDSGIDSSHPDLNVRGGASFVPSETNPYQNGSSHGTHVAGTIAALNNSIGVLGVAPSASLYAVKVLGSTGSGRYSWIINGIEWAISNNMDVINMSLGGPTGSTALKTVVDKAVSSGIVVVAAAGNGGSSGSTSTVGYPAKYPSTIAVGAVSSSNQRASFSSAGSELDVMAPGVSIQSTLPGGTYGAYSGTSMATPHVAGAAALILSKHPTWTNAQVRDRLESTATYLGNSFYYGKGLINVQAAAQ : 268
